- Assay Protocol: gradient 5% acetonitrile 3 min, to 50% in 2 min, to 85% in 15 min, held 3 min, 100 µL/min
- Assay Setup: column: Zorbax Extend-C18 2.1 x 50 mm; eluents: water / acetonitrile, 0.1% formic acid
Response field class: string, computed from recorded RP-LC retention time by ranges LOW: < 700 s; MEDIUM: ≥ 700 s and < 800 s; HIGH: ≥ 800 s

Compound: CC(=O)N1c2ccc(S(=O)(=O)N3CCC(C(=O)NC(C)c4ccccc4)CC3)cc2CC1C (stereo not given)
Answer Label: MEDIUM

Compound: Cc1ccc(C)c(Nc2nc(-c3ccccc3)cs2)c1
Answer Label: HIGH

Compound: COc1ccc(-c2ncc3c(n2)CCN(S(=O)(=O)c2cccc(Cl)c2)C3)cc1
Answer Label: HIGH

Compound: CCOc1ccc(CN(Cc2cc(=O)n3cc(Cl)ccc3n2)CC(C)C)cc1
Answer Label: MEDIUM

Compound: COc1ccc(CN2CCC(NC(=O)CCc3c(C)noc3C)C2)cn1 (stereo not given)
Answer Label: LOW

Compound: Cc1cccc(NC(=O)Cn2c(N3CCOCC3)nc(C)cc2=O)c1
Answer Label: LOW

Compound: Cc1ccc2c(C(=O)NCc3ccccc3Cl)cc(NC(=O)C(C)C)cc2n1
Answer Label: LOW

Compound: COc1ccc(NC(=O)Cn2ccnc2-c2ccnc(N3CCSCC3)c2)cc1OC
Answer Label: LOW

Compound: Cc1cc(C(=O)Nc2ccc3scnc3c2)no1
Answer Label: LOW

Compound: Cc1ccc(NC(=O)C2CCc3sc(C(=O)N4CCOCC4)cc3C2)cc1C (stereo not given)
Answer Label: LOW

Compound: CN(CC1(C)CCOCC1)C(=O)NCc1cccc(F)c1
Answer Label: MEDIUM

Compound: CCC(C)N1CCN(C(=O)CCc2ccc3c(c2)CN(C(=O)C2CC2)CCO3)CC1 (stereo not given)
Answer Label: LOW

Compound: O=C(CN1C(=O)NC2(CCCCC2)C1=O)Nc1cc(F)cc(F)c1
Answer Label: HIGH

Compound: COC(=O)c1ccc(NC(=O)N2CCC(n3cnc4ccc(Cl)cc4c3=O)CC2)cc1
Answer Label: HIGH

Compound: CCn1ccnc1N1CCN(C(=O)c2ccccc2C(F)(F)F)CC1
Answer Label: LOW

Compound: COc1ccc(-c2cn3c(CC(=O)N4CCc5ccccc5C4)csc3n2)cc1OC
Answer Label: MEDIUM

Compound: COC(=O)c1ncn2c1C(=O)N(c1cccc(C)c1C)C(C)(C(=O)NC1CCCC1)C2 (stereo not given)
Answer Label: MEDIUM

Compound: CCOc1ccccc1NC(=O)C1CCN(S(=O)(=O)c2cc(-c3noc(C)n3)sc2C)CC1
Answer Label: HIGH

Compound: CCOC(=O)C(Cc1ccc(O)cc1)Nc1nc2ccccc2o1 (stereo not given)
Answer Label: HIGH

----------
- Assay Protocol: gradient 5% acetonitrile 3 min, to 50% in 2 min, to 85% in 15 min, held 3 min, 100 µL/min
- Assay Setup: column: Zorbax Extend-C18 2.1 x 50 mm; eluents: water / acetonitrile, 0.1% formic acid
Known RP-LC retention time of a selection of molecules

Molecule: Cc1nc(-c2cccc(-c3noc(CN4C(=O)COc5ccc(Cl)cc54)n3)c2)cs1
Unit Annotation: s
RP-LC retention time: 1180
--
Molecule: Cc1nnc(-c2ccc(S(=O)(=O)N3CCN(c4ccccn4)CC3)o2)o1
Unit Annotation: s
RP-LC retention time: 601
--
Molecule: O=C(Nc1ccc2c(c1)OCCO2)N1CCC(Cc2nc(-c3cccnc3)n[nH]2)C1 (centres undefined)
Unit Annotation: s
RP-LC retention time: 592
--
Molecule: COc1cc(NC(=O)N(C)Cc2nc3cc(C(=O)N(C)C)ccc3n2C)cc(OC)c1
Unit Annotation: s
RP-LC retention time: 610
--
Molecule: CCCCNc1nc(-c2ccccc2F)nc2ccccc12
Unit Annotation: s
RP-LC retention time: 730
--
Molecule: O=C(CCCn1c(=O)c2cccn2c2ccc(F)cc21)N1CCN(C(=O)c2ccco2)CC1
Unit Annotation: s
RP-LC retention time: 745
--
Molecule: Cn1cc(C(=O)N2CC(Oc3ccc(-c4nc(-c5ccccc5)no4)cc3)C2)cn1
Unit Annotation: s
RP-LC retention time: 941
--
Molecule: COc1ccc(NC(=O)C2CCCN2S(=O)(=O)c2ccc(F)cc2)cc1 (centres undefined)
Unit Annotation: s
RP-LC retention time: 844
--
Molecule: CCN1CCC2(CC1)N=C(c1ccc3c(c1)OCO3)CC(c1cc(Br)ccc1O)N2 (centres undefined)
Unit Annotation: s
RP-LC retention time: 634
